All figures here come from paper PMC6760105.

- Target Or Test System: Nrf2-Keap1 interaction (Homo sapiens)
- Sequence (Q14145 whole entry): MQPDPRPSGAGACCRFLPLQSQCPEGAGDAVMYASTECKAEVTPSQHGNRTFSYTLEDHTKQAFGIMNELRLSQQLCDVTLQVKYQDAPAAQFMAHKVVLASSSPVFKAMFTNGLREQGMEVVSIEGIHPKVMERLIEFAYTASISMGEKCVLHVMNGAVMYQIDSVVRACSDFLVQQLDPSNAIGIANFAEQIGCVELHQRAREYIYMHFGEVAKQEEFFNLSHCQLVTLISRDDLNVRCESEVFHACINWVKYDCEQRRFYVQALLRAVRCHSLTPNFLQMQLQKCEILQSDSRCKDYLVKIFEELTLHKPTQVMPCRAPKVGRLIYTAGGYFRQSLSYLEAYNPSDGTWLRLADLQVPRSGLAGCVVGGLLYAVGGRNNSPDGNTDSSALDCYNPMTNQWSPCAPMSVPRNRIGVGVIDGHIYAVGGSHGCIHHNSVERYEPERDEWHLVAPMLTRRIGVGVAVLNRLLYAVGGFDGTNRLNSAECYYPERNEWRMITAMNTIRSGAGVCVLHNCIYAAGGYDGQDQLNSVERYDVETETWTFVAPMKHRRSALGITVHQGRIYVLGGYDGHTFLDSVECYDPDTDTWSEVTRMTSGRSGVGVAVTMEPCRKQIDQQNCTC
- Assay Info: Keap1:Nrf2 Inhibitor Screening Assay Kit (Nrf2 activation assay)
- Condition Description: fluorescence λex 485 nm, λem 530 nm; 100 µM to 1 nM; read-out: IC50, inhibition of Nrf2-Keap1 interaction
Readout Name: IC50 (µM)
Numbers only here, please. The scale is µM.

[in] Read the entry O=C(NNC(=O)c1cnc2ccccc2n1)c1cccnc1 [NQC] and write its reported IC50.
[out] 4.21

###

- Assay Info: Microsomal metabolic stability, rat liver microsomes
- Assay type: in vitro ADME
- Condition Description: rat, liver microsomes, pH 7.4, rat liver microsomes 0.5 mg/mL, NQC 1 µM, NADPH, 37 °C
Readout Name: half-life at 1 µM
The answer consists of two parts: a number and, after it, its unit.

[in] Entry O=C(NNC(=O)c1cnc2ccccc2n1)c1cccnc1 [NQC] needs its half-life at 1 µM filled in; supply it.
[out] 52.3 min

###

- Assay Info: Microsomal metabolic stability, mouse liver microsomes
- Assay type: in vitro ADME
- Condition Description: pH 7.4; mouse liver microsomes 0.5 mg/mL, NQC 1 µM, NADPH, 37 °C
Readout Name: half-life at 1 µM (min)
API: value field is a number in min; no unit string.

[in] Report half-life at 1 µM, nothing else, for this molecule: O=C(NNC(=O)c1cnc2ccccc2n1)c1cccnc1
[out] 24.6

###

- System: RAW 264.7 cells
- Assay Info: IL-1β production, ELISA, LPSEc stimulated cells
- Format: cell-based
- Condition Description: Mus musculus, RAW264.7, LPSEc (1 µg/mL) stimulated RAW 264.7 cells
Readout Name: IC50 (µM)
// units = µM; emit number, no label

[in] Using the record for O=C(NNC(=O)c1cnc2ccccc2n1)c1cccnc1 [NQC] , state its measured IC50.
[out] 13.3

###

- Assay Info: Microsomal metabolic stability, rat liver microsomes
- Format: in vitro ADME
- Condition Description: rat liver microsomes, NQC 1 µM
Readout Name: microsomal intrinsic clearance (CLint) (mL/min/g liver)
Numbers only here, please. The scale is mL/min/g liver.

[in] Please give the documented microsomal intrinsic clearance (CLint) of O=C(NNC(=O)c1cnc2ccccc2n1)c1cccnc1 [NQC]
[out] 1.39

###

- Assay Info: Microsomal metabolic stability, mouse liver microsomes
- Assay type: in vitro ADME
- Condition Description: mouse liver microsomes, NQC 1 µM
Readout Name: microsomal intrinsic clearance (CLint) (mL/min/g liver)
Numeric answer only, unit mL/min/g liver assumed.

[in] Complete the entry with microsomal intrinsic clearance (CLint) for O=C(NNC(=O)c1cnc2ccccc2n1)c1cccnc1 [NQC]
[out] 2.96

###

- Assay Info: Microsomal metabolic stability, human liver microsomes
- Assay type: in vitro ADME
- Condition Description: pH 7.4; human liver microsomes 0.5 mg/mL, NQC 1 µM, NADPH, 37 °C
Readout Name: half-life at 1 µM (h)
Quick reminder: number only, in h, skip the unit.

[in] Report measured half-life at 1 µM; entry is O=C(NNC(=O)c1cnc2ccccc2n1)c1cccnc1
[out] 1.05

###

- Test system: RAW 264.7 cells
- Assay Info: PGE2 production, ELISA, LPSEc stimulated cells
- Format: cell-based
- Condition Description: Mus musculus, RAW264.7, LPSEc (1 µg/mL) stimulated RAW 264.7 cells
Readout Name: pIC50
By convention, pIC50 is the negative base-10 log of a molar concentration.

[in] Identify measured pIC50 obtained with RAW 264.7 cells for O=C(NNC(=O)c1cnc2ccccc2n1)c1cccnc1 .
[out] 4.82
